# TARGET_OF_ASSAY: Sodium-dependent serotonin transporter (Homo sapiens, UniProt P31645)
# Sequence (P31645 whole entry): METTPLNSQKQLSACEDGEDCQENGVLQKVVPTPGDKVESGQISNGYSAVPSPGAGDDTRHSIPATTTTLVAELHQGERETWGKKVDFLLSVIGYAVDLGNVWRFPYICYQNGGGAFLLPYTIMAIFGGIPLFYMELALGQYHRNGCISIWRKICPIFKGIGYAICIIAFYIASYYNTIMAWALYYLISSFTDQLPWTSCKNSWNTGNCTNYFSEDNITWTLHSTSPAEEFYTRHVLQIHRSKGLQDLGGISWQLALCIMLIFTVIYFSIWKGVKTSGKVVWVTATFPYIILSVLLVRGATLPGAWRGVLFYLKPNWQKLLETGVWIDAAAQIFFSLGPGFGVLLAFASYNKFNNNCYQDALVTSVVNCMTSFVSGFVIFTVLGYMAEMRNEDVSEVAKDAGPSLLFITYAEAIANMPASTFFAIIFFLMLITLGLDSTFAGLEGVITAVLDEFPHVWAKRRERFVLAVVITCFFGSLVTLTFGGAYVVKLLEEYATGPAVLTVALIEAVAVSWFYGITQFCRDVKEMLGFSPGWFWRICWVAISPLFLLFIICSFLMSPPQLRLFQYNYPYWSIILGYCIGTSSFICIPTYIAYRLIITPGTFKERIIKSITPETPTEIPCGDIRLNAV
pIC50: −log10 of the molar value.
pIC50 of 6 or higher: Y. Under 6: N.

COMPOUND	LABEL
NCC1CC1(C(=O)NCc1ccccc1)c1ccccc1 (racemic)	N
CCN(CC)C(=O)C1(c2ccccc2)CC1CNCc1ccc[nH]1 (racemic)	N
NCC1CC1(C(=O)NC1CC1)c1ccccc1 (racemic)	N
CCN(CC)C(=O)C1(c2ccccc2)CC1CN(C)C (racemic)	N
CCN(CC)C(=O)C1(c2ccccc2)CC1CNCc1ccccn1 (racemic)	N
CCN(CC)C(=O)C1(c2ccccc2)CC1CNCc1ccncc1 (racemic)	N
CCN(CC)C(=O)C1(c2ccccc2)CC1CNCc1ccco1 (racemic)	N
CC(C)N(C(=O)[C@@]1(c2ccccc2)CC1CN)C(C)C (mixture of isomers)	N
CCNC(=O)[C@@]1(c2ccccc2)CC1CN (mixture of isomers)	N
C=CCN(CC)C(=O)C1(c2ccccc2)CC1CN (racemic)	Y
CCN(CC)C(=O)C1(c2ccccc2)CC1CNCc1cccnc1 (racemic)	N
CCN(Cc1ccccc1)C(=O)C1(c2ccccc2)CC1CN (racemic)	Y
NCC1CC1(C(=O)N1CCCc2ccccc21)c1ccccc1 (racemic)	Y
CCN(CC)C(=O)C1(c2ccccc2)CC1CNCC(C)C (racemic)	N

---

pIC50: −log10 of the molar value.
So I've got pIC50 readings for UniProt P31645, take a look.

COMPOUND	TARGET_OF_ASSAY	pIC50
CCN(CC)C(=O)C1(c2ccccc2)CC1CNCC(OC)OC (racemic)	UniProt P31645	5.96
CCN(C)C(=O)C1(c2ccccc2)CC1CN (racemic)	UniProt P31645	6.08
CCN(CCOC)C(=O)C1(c2ccccc2)CC1CN (racemic)	UniProt P31645	5.89

These measurements were taken from ChEMBL document CHEMBL1143218.
